experiment: Log P by HPLC on reversed phase columns (EEC directive 79/831 Annex V.A8; methods [a], [b], [c]); type: physicochemical; conditions: reversed phase HPLC column; HPLC on reversed phase columns, method [a]
Exercise: state measured chromatographic logP for each of the molecules provided.
# print the numeric value only

Would you kindly share the measured chromatographic logP for N#Cc1cncn1CC(O)c1ccc(Oc2ccc(Br)cc2)cc1Cl (stereo not drawn) [I-40] ?
3.31

Subsequent entry: CC(O)(Cn1cncc1C#N)c1ccc(Oc2ccc(Br)cc2)cc1C(F)(F)F (stereo not drawn) [I-208]
3.62

Subsequent entry: C=CC(C)C(O)(Cn1cncc1C#N)C1(Cl)CC1 (stereo not drawn) [I-311]
2.21

Subsequent entry: OC(Cn1cncc1F)c1cnc(Oc2ccc(Br)cc2)cc1C(F)(F)F (stereo not drawn) [I-97]
2.25

Subsequent entry: CC(O)(Cn1cncc1F)c1cnc(Oc2ccc(Br)cc2)cc1C(F)(F)F (stereo not drawn) [I-210]
2.37

Subsequent entry: N#Cc1cncn1CC(O)(c1ccc(-c2ccc(Cl)cc2)cc1Cl)C1(F)CC1 (stereo not drawn) [I-393]
3.64

* * *

Exercise: state measured pest or weed control at 500 ppm for each of the molecules provided.
test system: Uromyces appendiculatus; assay: Example E: in vivo preventive test on Uromyces appendiculatus (bean rust); settings: 264 h, 500 ppm of active ingredient, bean plants, preventive spray, evaluated 11 days after inoculation, read-out: efficacy

Under Uromyces appendiculatus: pest or weed control at 500 ppm value of C=CC(C)C(O)(Cn1cncc1C#N)C1(Cl)CC1 (stereo not drawn) ?
90 to 100%

Subsequent entry: NC(=S)c1cncn1CC(O)(c1ccc(Br)cc1Cl)C1(F)CC1 (stereo not drawn)
90 to 100%

Subsequent entry: CC(O)(Cn1cncc1F)c1cnc(Oc2ccc(Br)cc2)cc1C(F)(F)F (stereo not drawn)
90 to 100%

Subsequent entry: OC(Cn1cncc1F)c1cnc(Oc2ccc(Br)cc2)cc1C(F)(F)F (stereo not drawn)
90 to 100%

Subsequent entry: CC(O)(Cn1cncc1C#N)c1ccc(Oc2ccc(Br)cc2)cc1C(F)(F)F (stereo not drawn)
90 to 100%

Subsequent entry: CC(=O)OC(Cn1cncc1F)c1cnc(Oc2ccc(Cl)cc2)cc1C(F)(F)F (stereo not drawn)
90 to 100%

Subsequent entry: N#Cc1cncn1CC(O)c1ccc(Oc2ccc(Br)cc2)cc1Cl (stereo not drawn)
90 to 100%

Subsequent entry: CC(O)(Cn1cncc1C#N)c1ccc(Oc2ccc(Br)cc2)cc1Cl (stereo not drawn)
90 to 100%

Subsequent entry: CCCCC(O)(Cn1cncc1C#N)c1ccc(Cl)cc1 (stereo not drawn)
90 to 100%

* * *

experiment: Log P by HPLC on reversed phase columns (EEC directive 79/831 Annex V.A8; methods [a], [b], [c]); format: physicochemical; conditions: reversed phase HPLC column; method [a]: LC-UV, acidic range, 0.1% formic acid in water and acetonitrile as eluent (linear gradient from 10% to 95% acetonitrile)
Criterion: chromatographic logP meeting or surpassing 3. Met: 1. Not met: 0.

Assess whether reported chromatographic logP for "O=C(Cn1cncc1Cl)c1ncc(Oc2ccccc2)cc1Cl" sits at 3 or higher.
0

Subsequent entry: "N#Cc1cncn1CC(=O)c1ccc(Oc2c(F)cc(Cl)cc2F)nc1C(F)(F)F"
1

Subsequent entry: "COc1ccc(Oc2ccc(C(=O)Cn3cncc3Cl)c(C)n2)c(Cl)c1"
0

Subsequent entry: "O=C(Cn1cncc1Br)c1ccc(Oc2ccc(I)cc2)cc1Br"
1

Subsequent entry: "CCC(=O)c1cncn1CC(=O)c1ccc(Oc2ccc(Br)cc2)cc1C(F)(F)F"
1

Subsequent entry: "O=C(Cn1cncc1Cl)c1ccc(Oc2ccc(Br)cc2)cc1Br"
1

Subsequent entry: "O=C(Cn1cncc1Br)c1ccc(Oc2ccc(Cl)cc2)cc1F"
0

Subsequent entry: "O=C(Cn1cncc1Cl)c1ccc(Oc2ccc(OC(F)(F)F)cc2)c(Br)c1"
1

Subsequent entry: "O=C(Cn1cncc1Br)c1ccc(Oc2ccc(I)cc2)cc1F"
1

Subsequent entry: "CC(=O)c1cncn1CC(=O)c1ccc(Oc2ccc(Br)cc2)nc1C(F)(F)F"
1

Subsequent entry: "N#Cc1cncn1CC(=O)c1cnc(Oc2ccc(OC(F)(F)F)cc2)cc1C(F)(F)F"
1

Subsequent entry: "O=C(Cn1cncc1Br)c1ccc(Oc2ccc(Cl)nc2)nc1Cl"
0

Subsequent entry: "O=C(Cn1cncc1Br)c1ccc(Oc2ccc(OC(F)(F)F)cc2)cc1Br"
1

Subsequent entry: "N#Cc1cncn1CC(=O)c1cnc(Oc2ccc(Cl)cc2)cc1C(F)(F)F"
1

Subsequent entry: "N#Cc1cncn1CC(=O)c1ccc(Oc2ccc(Cl)cn2)cc1Cl"
0

Subsequent entry: "O=C(Cn1cncc1Br)c1ccc(Oc2ccc(C(F)(F)F)cc2)c(Cl)c1"
1

Subsequent entry: "O=C(Cn1cncc1Cl)c1ccc(Oc2ccc(C(F)(F)F)cc2)c(Br)c1"
1

Subsequent entry: "O=C(Cn1cncc1Cl)c1ccc(Oc2ccc(F)cc2)cc1Cl"
0

Subsequent entry: "N#Cc1cncn1CC(=O)c1ccc(Oc2ccc(Cl)nc2)cc1Cl"
0

* * *

Exercise: state measured LogP for each of the compounds provided.
test: Log P by HPLC on reversed phase columns (EEC directive 79/831 Annex V.A8; methods [a], [b], [c]); type: physicochemical

Would you kindly share the measured LogP for N#Cc1cncn1CC(O)(c1c(F)cccc1Cl)C1(F)CC1 (centres unmarked) ?
2.08^[a]

Subsequent entry: CC(C)(C)CC(O)(Cn1cncc1C#N)c1ccc(C(F)(F)F)cc1Cl (centres unmarked)
3.85^[a]

Subsequent entry: CCCC(C)C(O)(Cn1cncc1C#N)c1ccc(Cl)cc1Cl (single isomer, unassigned) [I-316]
3.72^[a]

Subsequent entry: N#Cc1cncn1CC(O)(c1cc(Cl)ccc1Cl)C1(Cl)CC1 (centres unmarked)
2.56^[a]

Subsequent entry: N#Cc1cncn1CC(O)(c1cc(Cl)c(Cl)c(Cl)c1)C1(F)CC1 (centres unmarked)
3.03^[a]

Subsequent entry: CC1(C(O)(Cn2cncc2C#N)c2ccc(F)cc2)CC1 (centres unmarked)
2.19^[a]

Subsequent entry: N#Cc1cncn1CC(O)(C#CCC1CCCCC1)CC1CC1 (centres unmarked) [I-593]
3.33^[a]

Subsequent entry: N#Cc1cncn1CC(O)(c1ccc(F)cc1)C1(F)CC1 (centres unmarked)
2.04^[a]

Subsequent entry: N#Cc1cncn1CC(O)(c1cc(F)c(Cl)cc1F)C1(F)CC1 (centres unmarked)
2.45^[a]

Subsequent entry: N#Cc1cncn1CC(O)c1ccc(C(F)(F)F)cc1 (centres unmarked)
1.90^[a]

Subsequent entry: C/C=C(\C)C(O)(Cn1cncc1C#N)c1ccc(F)cc1F (centres unmarked)
2.41^[a]

Subsequent entry: N#Cc1cncn1CC(O)(c1ccc(Oc2ccc(Cl)cc2)cc1Cl)C1(F)CC1 (centres unmarked)
3.64^[a]

Subsequent entry: N#Cc1cncn1CC(O)(c1ccc(C#CC2CC2)cc1Cl)C1(Cl)CC1 (centres unmarked)
3.25^[a]

Subsequent entry: N#Cc1cncn1CC(O)(c1cc(Br)cc(Br)c1)C1(F)CC1 (centres unmarked)
2.82^[a]

Subsequent entry: N#Cc1cncn1CC(O)(CCC1CCCCC1)C1(F)CC1 (centres unmarked)
3.19^[a]

Subsequent entry: N#Cc1cncn1CC(O)(c1cc(F)cc(F)c1F)C1(F)CC1 (centres unmarked)
2.18^[a]

Subsequent entry: CCCC(O)(Cn1cncc1C#N)c1ccc(F)cc1Br (centres unmarked)
2.75^[a]

Subsequent entry: N#Cc1cncn1CC(O)(c1ccc(S(F)(F)(F)(F)F)cc1)C1(F)CC1 (centres unmarked)
2.78^[a]

Subsequent entry: N#Cc1cncn1CC(O)(c1cc(Cl)c(Cl)cc1Cl)C1(Cl)CC1 (centres unmarked)
2.98^[a]

Subsequent entry: N#Cc1cncn1CC(O)c1ccc(Cl)cc1 (centres unmarked)
1.53^[a]

Subsequent entry: CC(O)(Cn1cncc1C#N)c1ccc(Oc2ccc(C(F)(F)F)cc2)nc1C(F)(F)F (centres unmarked)
3.25^[a]

Subsequent entry: N#Cc1cncn1CC(O)(c1ccc(F)c(F)c1F)C1(Cl)CC1 (centres unmarked)
2.37^[a]

Subsequent entry: Cc1ccccc1C(O)(Cn1cncc1C#N)C1(Cl)CC1 (centres unmarked)
1.29^[a]

Subsequent entry: N#Cc1cncn1CC(O)c1ccc(Oc2ccccc2)cc1F (centres unmarked)
2.54^[a]

Subsequent entry: N#Cc1cncn1CC(O)(C#CCC1CCCCC1)C1CC1 (centres unmarked)
3.02^[a]

Subsequent entry: OC(Cn1cncc1Cl)c1ccc(Oc2ccc(F)cc2)cc1Cl (centres unmarked)
2.28^[a]

Subsequent entry: N#Cc1cncn1CC(O)(CC1CC1)c1cc(Cl)cc(Br)c1 (centres unmarked)
2.93^[a]

Subsequent entry: N#Cc1cncn1CC(O)c1ccc(Oc2ccc(OC(F)(F)F)cc2)nc1C(F)(F)F (centres unmarked)
3.12^[a]

Subsequent entry: COc1ccc(C#CC(O)(Cn2cncc2C#N)C2(Cl)CC2)cc1 (centres unmarked)
2.51^[a]

Subsequent entry: N#Cc1cncn1CC(O)(c1c(F)ccc(F)c1F)C1(F)CC1 (centres unmarked)
2.07^[a]

Subsequent entry: CC(O)(Cn1cncc1C#N)c1ccc(Oc2ccc(Br)cc2)cc1Br (centres unmarked)
3.73^[a]

Subsequent entry: CCOC(Cn1cncc1F)c1ccc(Oc2ccc(Cl)cc2)cc1C(F)(F)F (centres unmarked)
3.54^[a]

Subsequent entry: C#CC(O)(Cn1cncc1C#N)C1(F)CC1 (centres unmarked)
1.11^[a]

Subsequent entry: CC(O)(Cn1cncc1F)c1ccc(Oc2ccc(S(F)(F)(F)(F)F)cc2)nc1C(F)(F)F (centres unmarked)
2.62^[a]

Subsequent entry: CC(C)(C)CC(C)(O)Cn1cncc1C#N (centres unmarked)
1.92^[a]

Subsequent entry: CC(O)(Cn1cncc1C#N)c1cnc(Oc2ccc(C(F)(F)F)cc2)cc1Cl (centres unmarked)
3.21^[a]

Subsequent entry: CC(O)(Cn1cncc1F)c1cnc(Oc2ccc(Br)cc2)cc1C(F)(F)F (single isomer, unassigned) [I-220]
2.37^[a]

Subsequent entry: OC(Cn1cncc1Cl)c1ccc(Oc2ccc(I)cc2)cc1F (centres unmarked)
2.51^[a]

Subsequent entry: N#Cc1cncn1CC(O)c1ccccc1C(F)(F)F (centres unmarked)
1.81^[a]

Subsequent entry: C[Si](C)(C)C=CC(O)(Cn1cncc1C#N)C1(F)CC1 (centres unmarked)
2.77^[a]

Subsequent entry: COc1nc(Cl)ccc1C(O)(Cn1cncc1C#N)C1(Cl)CC1 (centres unmarked)
2.51^[a]
